Tested on: HCC-2998 colon
Assay: NCI tumour cell line growth inhibition, 48 h
Consider the following compounds; for each one, report its log10(TGI).
Lab note - TGI converted to log10 from values in µM.

Look over these answered cases.
- Cn1cc(-c2nonc2-c2c[nH]c3ccccc23)c2ccccc21: 0.85
- C(=Nc1ccccc1)C1CCCC[N-]1.C(=Nc1ccccc1)C1CCCC[N-]1.[Cu+2].[O-][Cl+3]([O-])([O-])O (stereo unspecified): 1.39

Lab note: each compound below needs its log10(TGI) filled in.
1. CCOc1ccc2nc(NC(=O)C(=O)C(C(=O)c3ccccc3-c3ccccc3)C3OC(=O)c4ccccc43)sc2c1 (stereo unspecified)
2. C=C1C(=O)O[C@H]2[C@H]1CC/C(CNC(=O)/C=C/c1ccc(Br)cc1)=C\CC[C@@]1(C)O[C@@H]21
3. CC(=O)N1CCN(C2=Nc3ccccc3CO2)C1=S
4. COC1=CC(c2ccc[nH]2)=N/C1=C\c1[nH]c(C)c(C(=O)OCc2ccccc2)c1C
5. Cc1c2cc[nH]c(=O)c2c(C)c2c1[nH]c1cc(OCCN3CCN(C)CC3)ccc12
6. O=C(Cn1c(=O)oc2ccc(C(=O)c3ccc(F)cc3)cc21)c1ccc([N+](=O)[O-])cc1
7. O=C(O)c1ccccc1.[Ag]

## Result
1: 1.52; 2: 0.48; 3: 1.99; 4: 0.23; 5: 0.86; 6: 1.58; 7: 1.57

For the 2 compounds below, give their log10(TGI) values.
1. FC(F)(F)C1(Cl)C(c2ccccc2)=C1c1ccccc1
2. C/C=C/[C@@]1(OC(=O)c2ccccc2)C[C@@H]2CCCC[C@@H]21

## Result
[1.50, 1.65]

###

System: OVCAR-4 ovarian
Assay: NCI tumour cell line growth inhibition, 48 h
EXPERIMENTAL_READOUT: TGI

Solved entries (count: 3):
• C1CC2=C(C1)[Se]C(=C1Sc3nsnc3S1)[Se]2 = > 100 µM
• CC1=NN(C(=O)CSc2nnc(SCC(=O)N3N=C(C)CC3(O)c3ccccc3)s2)C(O)(c2ccccc2)C1 (stereo unspecified) = > 100 µM
• CCOc1ccc(NC(=O)CC2SC(=Nc3ccc(Cl)cc3)NC2=O)cc1 (stereo unspecified) = > 100 µM

Hey, can you go through the list below and give me TGI for every item?
1. CCOc1ccccc1NC(=O)CCC(=O)OC
2. Cc1ccccc1NC(=S)Nc1ccccn1
3. CCCCCCCCCCCOC(=S)NC(C)C
4. COc1ccc(/C(=N/NC(N)=O)C2(O)C(=O)Nc3ccc([N+](=O)[O-])cc32)cc1 (stereo unspecified)
5. COc1ccc(-c2nc(N)c(C#N)c3c2CCS(=O)(=O)c2ccc(C)cc2-3)cc1OC
6. O=C1CSC2(CC(/C=C/c3ccccc3)=NN2c2cccc(S(=O)(=O)O)c2)N1c1nc2ccccc2s1 (stereo unspecified)

## Result
["> 100 µM", "> 100 µM", "52 µM", "27.1 µM", "> 100 µM", "54.1 µM"]

Please supply TGI for each of the following items, keeping them in order.
1. CN(C)c1ccc2c(c1)C(=O)N(OS(=O)(=O)c1ccc([N+](=O)[O-])cc1)C2=O
2. O=S(=O)(c1ccc(Br)cc1)n1c2ccc(Br)cc2c2nc3ccccc3nc21

## Result
1: 31.5 µM; 2: > 100 µM

###

Would you mind telling me the reported TGI of each entry?
Tested on: EKVX NSCLC
Assay: NCI tumour cell line growth inhibition, 48 h

For each of the molecules below, state TGI.
1. COc1c2cc([N+](=O)[O-])cc1CNC(=O)CN1CCOCCOCCN(CCOCCOCC1)CC(=O)NC2
2. CC1(C)O[C@H]2Cn3c(c(C#N)c4ccccc43)[C@H]2O1
3. c1ccc(C2=NC3(CCCCC3)N(c3nc4ccccc4s3)N2)nc1

## Result
1. > 100 µM
2. > 100 µM
3. > 100 µM

Dear reader, for each entry below, please note its TGI.
1. O=C1C=CC2CCC1C2 (stereo not drawn)
2. C=C(Cn1c(=O)c2ccccc2c2ccccc21)c1ccc(C(=O)Nc2ccccc2N)cc1
3. CC1=NN(C(=O)c2ccccc2O)C(=O)/C1=C/c1ccc([N+](=O)[O-])cc1

## Result
1. > 100 µM
2. > 100 µM
3. > 100 µM

Please state TGI for every molecule in the list that follows.
1. CN1C/C(=C\c2cccs2)C2=NC(=S)NC(c3cccs3)C2C1 (stereo not drawn)
2. C[N+]1(C)CCCC1C(=O)[O-] (stereo not drawn)

## Result
["> 100 µM", "> 100 µM"]

###

Test system: HCT-116 colon
Assay: NCI tumour cell line growth inhibition, 48 h
Could you please report measured TGI for the items listed next?
Give bare numbers, in µM.

• C=C1C(=O)O[C@H]2[C@H]1CC/C(CNC(=O)/C=C/c1ccc(Br)cc1)=C\CC[C@@]1(C)O[C@@H]21 = 1.95

Turning now to a further record.
## Task What does the record list as TGI for `NS(=O)(=O)c1ccc(NC(=O)c2ccc(NC3=C(Cl)C(=O)N(Cc4ccccc4)C3=O)cc2)cc1` ?
## Result 10.3

###

System: LOX IMVI melanoma
Assay: NCI tumour cell line growth inhibition, 48 h; in the data active = GI50 below about 0.43 µM; inactive = the rest
Write down the outcome that applies. Available outcomes: active, inactive

# count of solved cases: 5
• CCCN(CCC)CCCNCc1cc(I)cc(C)c1O = inactive
• COc1ccc(C#Cc2ccccc2C#CCCCCO)cc1 = inactive
• COc1ccc(-c2[nH]ncc2-c2cc3c(c(OC)c2)OCC(=O)N3)cc1 = inactive
• CC1=NN(C(=O)c2ccccc2O)C(=O)/C1=C/c1ccc([N+](=O)[O-])cc1 = inactive
• Cc1cc(C)nc(NC(N)=NCCc2ccccc2)n1 = inactive

## Task Lab log entry: `C=C(CNC(=O)Nc1ccc(-c2ccccc2)cc1)c1ccc(C(=O)Nc2ccccc2N)cc1` — outcome as called in the assay?
## Result inactive

## Task How was Cc1[nH]ncc1-c1cc2nc(C3CC4CCN3CC4)[nH]c(=O)c2s1 (stereo not given) classified in this test?
## Result inactive

## Task Check the results log: what was the call for `C=CC(=O)Nc1ccc(Nc2nccc(-c3ccc(N4CCCC4)c(C#N)c3)n2)cc1` ?
## Result inactive

## Task Check the results log: what was the call for `Cc1c2cc[nH]c(=O)c2c(C)c2c1[nH]c1cc(OCCN3CCN(C)CC3)ccc12` ?
## Result inactive

## Task Test call for this compound, please: `COC1=CC(c2ccc[nH]2)=N/C1=C\c1[nH]c(C)c(C(=O)OCc2ccccc2)c1C`
## Result active

###

Tested on: UACC-257 melanoma
Test: NCI tumour cell line growth inhibition, 48 h
EXPERIMENTAL_READOUT: TGI

Check out these entries, answers already filled in.
* Cc1ccc(NCCCN2CCN(CCCNc3ccc(C)c4sc5ccccc5c(=O)c34)CC2)c2c(=O)c3ccccc3sc12 | > 100 µM
* CCC[CH2][Sn]([CH2]CCC)([O]C(=O)c1c(F)cccc1F)[O]C(=O)c1c(F)cccc1F | 1.99 µM
* CCN(CC)CCNC(=O)c1ccccc1NC(=O)C(=O)Nc1ccccc1C(=O)NCCN(CC)CC | 35.5 µM

Please report TGI for every entry that follows.
1. O=C(Cc1ccccc1)NCCc1ccc(O)c(O)c1
2. CCOc1ccc2nc(NC(=O)C(=O)C(C(=O)c3ccccc3-c3ccccc3)C3OC(=O)c4ccccc43)sc2c1 (stereo not given)

## Result
1: > 100 µM; 2: > 96 µM

###

Would you mind telling me the reported log10 TGI of each entry?
Tested on: UACC-257 melanoma
Assay: NCI tumour cell line growth inhibition, 48 h
All values: log10 TGI [µM].

As a guide, the following entries are already answered.
• C/C=C/[C@@]1(OC(=O)c2ccccc2)C[C@@H]2CCCC[C@@H]21 = 1.53
• CC[C@@]1(O)C(=O)OCc2c1cc1n(c2=O)Cc2c-1nc1ccccc1c2/C=N\NC(=O)C(N)CC(C)C (some centres undefined) = 0.26
• COc1ccc(C#Cc2ccccc2C#CCCCCO)cc1 = 1.55
• Cn1cnc([N+](=O)[O-])c1Sc1nc2cc(Cl)c(F)cc2[nH]1 = 1.40
• CO[C@H](C(=O)[C@@H](O)[C@@H](C)O)[C@@H]1Cc2cc3cc(O[C@H]4C[C@@H](O[C@H]5C[C@@H](O)[C@H](O)C(C)O5)[C@H](O)C(C)O4)c(C)c(O)c3c(O)c2C(=O)[C@H]1O[C@H]1C[C@@H](O[C@H]2C[C@@H](O[C@H]3C[C@@H](OC)[C@H](O)C(C)O3)[C@@H](O)C(C)O2)C(O)(O)C(C)O1 (some centres undefined) = -0.29

## Task State the recorded log10 TGI for this entry: `Cn1cc(-c2nonc2-c2c[nH]c3ccccc23)c2ccccc21`
## Result 1.31
